Origin of measurements: PubChem BioAssay (NCI)

Test system: RXF 393 renal
Assay: NCI-60 one-dose screen, 48 h
Details: 10 µM unless noted
About 83,000 compounds went through this panel and 20% of them were active in at least one assay; those are over-represented in the sample as a whole. Active and inactive are the calls of the source. The calls were made as follows: active = growth percent below 10; inactive = the rest.
Pick one and only one: active, inactive

Example results:
# compound, class_label
data = [
    ("COc1ccc(-c2cc(C(=O)OCc3ccc(Br)cc3)nn2-c2ccc(S(C)(=O)=O)cc2)cc1OC", "inactive"),
    ("COc1ccc(SC2c3cc(OC)ccc3Oc3nc(N)c(C#N)c(N)c32)cc1 (stereo not given)", "inactive"),
]

Request: // param item: COc1ccc(N=Nc2c(N)nn3c(-c4ccc(F)cc4)ccnc23)cc1 ; yields the recorded call
Result: inactive

Request: // param item: S=C(Nc1ccccc1)Nc1ccc(OCc2nc3ccc(Cl)cc3[nH]2)cc1 ; yields the recorded call
Result: inactive

Request: // param item: COc1ccc(C(=O)c2c(N)c(C#N)cn2-c2ccc([N+](=O)[O-])cc2)cc1 ; yields the recorded call
Result: inactive

Request: // param item: O=C(NN1C(=O)/C(=C/C=C/c2ccc([N+](=O)[O-])o2)SC1=S)c1ccncc1 ; yields the recorded call
Result: active

Request: // param item: COc1ccc(C2=Nc3c(N)nc(N)nc3NC(c3ccc(Oc4nc(Nc5ccc(F)cc5)nc(N(C)C)n4)c(OC)c3)C2)cc1 (stereo not given) ; yields the recorded call
Result: inactive

Request: // param item: COC(=O)c1cc(C(=O)CBr)n2c1ccc1c3ccccc3ccc12 ; yields the recorded call
Result: inactive
